# assay.target: mRORγ LBD (Mus musculus, UniProt P51450)
# Construct: made in house; host or cells: Sf9 insect cells, baculovirus; cleared lysate used directly
# Sequence (P51450 251-516): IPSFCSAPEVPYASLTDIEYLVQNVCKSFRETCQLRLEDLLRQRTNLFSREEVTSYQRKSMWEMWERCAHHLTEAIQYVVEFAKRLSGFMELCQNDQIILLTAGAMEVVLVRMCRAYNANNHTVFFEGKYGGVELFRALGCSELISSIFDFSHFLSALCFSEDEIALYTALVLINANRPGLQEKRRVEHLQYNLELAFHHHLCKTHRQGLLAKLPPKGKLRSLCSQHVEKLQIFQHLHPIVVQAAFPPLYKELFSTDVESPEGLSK
# assay.overview: Biochemical assay, coregulatory peptide recruitment to GST-RORγ LBD (FRET)
# settings: Table 4A; peptide K1, no agonist present; medians of two or more assays; unit inferred; read-out: EC50 Biochemical
pEC50: −log10 of the molar value.
Would you mind labelling by pEC50? At or over 6 is label 1, under is label 0.

Threshold query (pEC50 >= 6) on Cn1c(CNc2cccc(Cl)c2)nnc1SCC(=O)Nc1cccc2ccccc12
label 0

Threshold query (pEC50 >= 6) on CCn1c(CNc2ccc(C)c(Cl)c2)nnc1SCC(=O)Nc1cccc2ccccc12
label 1

Threshold query (pEC50 >= 6) on CCn1c(CNc2ccc(Cl)cc2)nnc1SCC(=O)Nc1cccc2ccccc12
label 0

Threshold query (pEC50 >= 6) on COc1c(C=NNc2nc(N3CCCCC3)nc(N3CCCCC3)n2)cccc1[N+](=O)[O-]
label 0

###

# assay.target: mRORγ LBD (Mus musculus, UniProt P51450)
# Construct: made in house; host or cells: Sf9 insect cells, baculovirus; cleared lysate used directly
# assay.overview: Biochemical assay, coregulatory peptide recruitment to GST-RORγ LBD (FRET)
# settings: agonist; read-out: potency in the biochemical assay
attribute.measured: EC50

Request - read-out EC50 | tested on mRORγ LBD (Mus musculus, UniProt P51450) | molecule COC(C)CCC(C)C1CCC2C3CC(O)C4CC(O)CCC4(C)C3CCC12C (stereo not shown)
< 100 nM

###

# assay.target: mRORγ LBD (Mus musculus)
# Construct: made in house; host or cells: Sf9 insect cells, baculovirus; cleared lysate used directly
# assay.overview: Biochemical assay, coregulatory peptide recruitment to GST-RORγ LBD (FRET)
# settings: GST-RORγ and peptide K, in the presence of antagonist T0901317 (FIG. 5); read-out: estimated EC50 in biochemical assay, shifted by antagonist
attribute.measured: pEC50
Scale note: pEC50 = -log10(concentration in M).

Which pEC50 value belongs to COC(=O)CCC(C)C1CCC2C3CC(O)C4CC(O)CCC4(C)C3CCC12C (stereo not shown) [OR-942] ?
5.40

###

# assay.target: mRORγ LBD (Mus musculus, UniProt P51450)
# Construct: made in house; host or cells: Sf9 insect cells, baculovirus; cleared lysate used directly
# assay.overview: Biochemical assay, coregulatory peptide recruitment to GST-RORγ LBD (FRET)
# settings: Table 1; mRORγ and peptide K1; read-out: Assay EC50 in micromolar at mRORγ Biochemical
Please go through the items and note down their EC50.
The figure you give is taken to be in µM; do not add the unit.

Which EC50 value belongs to CCN(c1ccc(C(O)(C(F)(F)F)C(F)(F)F)cc1)S(=O)(=O)c1ccc([N+](=O)[O-])cc1 ?
0.9

Which EC50 value belongs to CCN(c1ccc(C(O)(C(F)(F)F)C(F)(F)F)cc1)S(=O)(=O)c1ccc(Br)cc1 ?
0.42

Which EC50 value belongs to CCCCc1ccc(S(=O)(=O)N(CC)c2ccc(C(O)(C(F)(F)F)C(F)(F)F)cc2)cc1 ?
5.8

Which EC50 value belongs to CCN(c1ccc(C(O)(C(F)(F)F)C(F)(F)F)cc1)S(=O)(=O)c1ccc(C)cc1 ?
0.89
